assay: Plasma pharmacokinetics, cycle 1; format: in vivo, human; conditions: human, plasma, oral
OUTCOME MEASURE: Tmax (h)
One number for each entry, in h.

Input line: State, in one line, measured Tmax of CCN1CCN(c2ccc(Nc3cc(N(C)C(=O)Nc4c(Cl)c(OC)cc(OC)c4Cl)ncn3)cc2)CC1 [BGJ398]
Output line: 5
